target_or_system: HDAC6 (Homo sapiens)
Construct: purchased Reaction Biology Corporation (assay run by the CRO)
Sequence (Q9UBN7 1-1215): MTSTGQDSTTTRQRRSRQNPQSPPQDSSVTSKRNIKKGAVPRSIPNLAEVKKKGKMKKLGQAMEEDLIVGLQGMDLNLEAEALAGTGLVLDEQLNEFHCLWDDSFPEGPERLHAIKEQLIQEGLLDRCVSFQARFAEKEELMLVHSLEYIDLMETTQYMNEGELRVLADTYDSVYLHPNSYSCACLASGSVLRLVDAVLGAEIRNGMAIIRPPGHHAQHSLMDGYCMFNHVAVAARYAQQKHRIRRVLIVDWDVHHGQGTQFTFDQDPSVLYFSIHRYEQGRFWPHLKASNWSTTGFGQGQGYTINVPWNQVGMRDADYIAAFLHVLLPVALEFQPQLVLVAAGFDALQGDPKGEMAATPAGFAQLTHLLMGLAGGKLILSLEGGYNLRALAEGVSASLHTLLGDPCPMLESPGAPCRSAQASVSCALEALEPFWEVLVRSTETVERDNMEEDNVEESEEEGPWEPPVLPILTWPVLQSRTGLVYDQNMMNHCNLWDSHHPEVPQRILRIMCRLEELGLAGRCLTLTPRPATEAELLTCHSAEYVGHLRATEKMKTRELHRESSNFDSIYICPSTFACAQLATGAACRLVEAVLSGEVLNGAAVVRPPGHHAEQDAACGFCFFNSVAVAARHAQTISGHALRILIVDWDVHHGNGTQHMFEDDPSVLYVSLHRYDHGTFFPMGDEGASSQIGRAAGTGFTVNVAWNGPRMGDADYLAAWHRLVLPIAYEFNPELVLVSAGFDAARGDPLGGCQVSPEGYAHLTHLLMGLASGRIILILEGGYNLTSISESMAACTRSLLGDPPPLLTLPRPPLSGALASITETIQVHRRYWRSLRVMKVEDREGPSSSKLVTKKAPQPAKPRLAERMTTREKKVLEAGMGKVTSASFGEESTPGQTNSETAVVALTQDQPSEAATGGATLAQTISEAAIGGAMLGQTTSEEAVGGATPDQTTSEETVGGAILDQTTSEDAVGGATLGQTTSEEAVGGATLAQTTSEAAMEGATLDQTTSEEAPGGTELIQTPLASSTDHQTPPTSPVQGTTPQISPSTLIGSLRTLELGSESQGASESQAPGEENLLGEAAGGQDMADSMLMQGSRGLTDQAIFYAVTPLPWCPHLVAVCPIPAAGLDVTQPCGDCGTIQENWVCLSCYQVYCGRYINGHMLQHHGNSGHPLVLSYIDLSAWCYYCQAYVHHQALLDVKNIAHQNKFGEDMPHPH
test: HDAC6 inhibition, full IC50 measurement (Reaction Biology; fluorogenic p53 peptide RHKK(Ac)AMC)
Format: biochemical
run_parameters: Conc. 3.70E-07 M, t1
Peptide text beside a SMILES is read from it.
observation_type: HDAC6 activity raw data (signal)
Just the number, please, no unit after it.

molecule	HDAC6 activity raw data (signal)
CCCC[C@H]1NC(=O)[C@H](CC(=O)O)NC(=O)[C@@H](CO)NC(=O)[C@@H](C)NC(=O)[C@H](CCCCN)NC(=O)[C@@H](CCCCN)NC(=O)[C@H](Cc2ccccc2)NC(=O)[C@H](CCCCCS)NC1=O [des4.3.1.2, SHA-Phe-dLys-Lys-dAla-dSer-Asp-dNle] (HELM PEPTIDE1{D.[CCCC[C@@H](N[*:1])C(=O)[*:2]].[O=C([C@H](CCCCCS)N[*:1])[*:2]].F.[dK].K.[dA].[dS]}$PEPTIDE1,PEPTIDE1,1:R1-8:R2$$$V2.0)	1440305

Here is another molecule to look at.
Prompt: // Input: CCCC[C@H]1NC(=O)[C@H](Cc2ccccc2)NC(=O)[C@H](CCCCCS)NC(=O)[C@@H](CCCNC(=N)N)NC(=O)[C@H](CC(=O)O)NC(=O)[C@@H](CO)NC(=O)[C@@H](C)NC(=O)[C@H](CCCCN)NC1=O [des4.3.1, SHA-Phe-dNle-Lys-dAla-dSer-Asp-dArg] (HELM PEPTIDE1{D.[dR].[O=C([C@H](CCCCCS)N[*:1])[*:2]].F.[CCCC[C@@H](N[*:1])C(=O)[*:2]].K.[dA].[dS]}$PEPTIDE1,PEPTIDE1,1:R1-8:R2$$$V2.0) . Output its HDAC6 activity raw data (signal) only.
Response: 48261

# credit: paper PMC8185074
